Listed compounds paired with reported pIC50
studySystem: Recombinant human prolyl oligopeptidase (Homo sapiens, UniProt P48147)
Sequence (P48147 whole entry): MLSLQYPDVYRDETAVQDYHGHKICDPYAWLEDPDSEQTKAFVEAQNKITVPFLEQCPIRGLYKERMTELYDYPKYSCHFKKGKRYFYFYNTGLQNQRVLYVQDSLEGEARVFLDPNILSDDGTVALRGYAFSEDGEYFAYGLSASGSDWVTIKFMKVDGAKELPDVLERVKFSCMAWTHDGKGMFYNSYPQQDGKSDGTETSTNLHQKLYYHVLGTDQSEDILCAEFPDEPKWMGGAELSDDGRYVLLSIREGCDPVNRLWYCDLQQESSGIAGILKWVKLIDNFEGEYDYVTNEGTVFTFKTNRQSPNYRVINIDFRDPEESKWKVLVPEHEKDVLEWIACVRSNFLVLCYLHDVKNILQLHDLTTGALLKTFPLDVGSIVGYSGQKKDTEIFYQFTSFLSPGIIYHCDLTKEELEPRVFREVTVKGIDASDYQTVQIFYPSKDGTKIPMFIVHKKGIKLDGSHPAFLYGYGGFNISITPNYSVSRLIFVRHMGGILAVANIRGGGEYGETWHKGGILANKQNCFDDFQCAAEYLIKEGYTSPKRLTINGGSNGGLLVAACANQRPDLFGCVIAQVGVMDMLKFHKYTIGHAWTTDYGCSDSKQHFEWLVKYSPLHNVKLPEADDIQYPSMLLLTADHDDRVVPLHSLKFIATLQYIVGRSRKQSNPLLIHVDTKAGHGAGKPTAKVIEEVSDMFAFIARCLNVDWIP
assayName: Determination of IC50- and Ki-values of PEP-inhibitors, chromogenic substrate Cbz-Gly-L-Pro-pNA
conditionSet: substrate 0.15 mM, HEPES buffer pH 7.6, 30° C.; n.i. means no inhibition
Scale for pIC50: -log10 of concentration given in mol/L; no unit attached.

Use these answered entries as a reference point.
Task item: Give Recombinant human prolyl oligopeptidase (Homo sapiens, UniProt P48147) pIC50 for O=C(N[C@@H](Cc1ccccc1)C(=O)c1cccs1)OCc1ccccc1 [Example 3, 2-[Cbz-L-Phe]Thiophene]
Reply: 6.00

Task item: Give Recombinant human prolyl oligopeptidase (Homo sapiens, UniProt P48147) pIC50 for C=CCOC(=O)N[C@@H](Cc1ccccc1)C(=O)c1ccco1 [Example 15, 2-[Aloc-L-Phe]Furan]
Reply: 5.00

Task item: Give Recombinant human prolyl oligopeptidase (Homo sapiens, UniProt P48147) pIC50 for O=C(N[C@@H](Cc1ccccc1)C(=O)c1nccs1)OCc1ccccc1 [Example 5, 2-[Cbz-L-Phe]Thiazole]
Reply: 8.92

Task item: Give Recombinant human prolyl oligopeptidase (Homo sapiens, UniProt P48147) pIC50 for `O=C(N[C@@H](Cc1ccccc1)C(=O)c1ccccc1)OCc1ccccc1`
Reply: 5.28

More entries:
Task item: Give Recombinant human prolyl oligopeptidase (Homo sapiens, UniProt P48147) pIC50 for C[C@H](NC(=O)OCc1ccccc1)C(=O)c1nccs1 [Example 10, 2-[Cbz-L-Ala]Thiazole]
Reply: 5.15

Task item: Give Recombinant human prolyl oligopeptidase (Homo sapiens, UniProt P48147) pIC50 for CC(C)(C)OC(=O)N[C@@H](Cc1c[nH]c2ccccc12)C(=O)c1nccs1 [Example 17, 2-[Boc-L-Trp]Thiazole]
Reply: 4.03
